Biological target: human Cot catalytic domain (30-397 amino acids) (Homo sapiens)
Construct: Purified recombinant human Cot catalytic domain (30-397 amino acids) was purchased from Cama Biosciences; purchased Cama Biosciences (so in the source)
Sequence (P41279 30-397): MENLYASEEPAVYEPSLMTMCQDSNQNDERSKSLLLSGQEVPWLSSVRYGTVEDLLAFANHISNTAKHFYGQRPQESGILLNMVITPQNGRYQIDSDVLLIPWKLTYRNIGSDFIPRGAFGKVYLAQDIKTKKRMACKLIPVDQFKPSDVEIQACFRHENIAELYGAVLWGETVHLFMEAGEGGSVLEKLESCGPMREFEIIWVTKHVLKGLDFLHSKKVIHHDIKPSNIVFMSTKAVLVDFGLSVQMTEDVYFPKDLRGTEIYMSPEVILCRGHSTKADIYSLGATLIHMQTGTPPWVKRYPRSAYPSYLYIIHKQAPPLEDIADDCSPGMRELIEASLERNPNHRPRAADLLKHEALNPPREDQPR
Experiment: High Throughput Cot Biochemical Assay (KinEASE TR-FRET)
Conditions: Cot KinEASE TR-FRET (HTRF) biochemical assay, 400 μM ATP; read-out: IC50 HTRF
Would you mind telling me the reported IC50 of each entry?
Answers are plain numbers, in nM.

Go through the list and state IC50 for each entry.
1. [2H][C@](Nc1cc(Cl)c2ncc(C#N)c(NCC3(C)CC(F)(F)C3)c2c1)(c1ccc(F)cc1)c1cn(C2CC2)nn1 [Example 199]
2. [2H][C@](Nc1cc(Cl)c2ncc(C#N)c(Nc3cnc(F)c(F)c3)c2c1)(c1ccc(F)cc1)c1cn(Cc2c(F)cccc2F)nn1 [Example 329]
3. [2H]C(Nc1cc(Cl)c2ncc(C#N)c(NCC(C)(C)C)c2c1)(c1ccc(F)cc1)c1nnnn1Cc1ccc(OC)cc1 (stereo not shown) [Example 263]
4. [2H]C(Nc1cc(Cl)c2ncc(C#N)c(NC(=O)C(C)(C)C)c2c1)(c1ccc(F)cc1)c1cn(C2CC2)nn1 (stereo not shown) [Compound 33]
5. [2H][C@](Nc1cc(Cl)c2ncc(C#N)c(NN3CCCCCC3)c2c1)(c1ccc(F)cc1)c1cn(C2CC2)nn1 [Example 177]
6. [2H][C@@](Nc1cc(Cl)c2ncc(C#N)c(NC3CC4CCC3CC4)c2c1)(c1ccc(F)cc1)c1cn(C2CC2)nn1 (stereo partly shown) [Example 277]
7. [2H][C@](Nc1cc(Cl)c2ncc(C#N)c(NC3(CC)CCC3)c2c1)(c1ccc(F)cc1)c1cn(C2CC2)nn1 [Example 218]
8. [2H][C@](Nc1cc(Cl)c2ncc(C#N)c(Nc3cnc(F)c(F)c3)c2c1)(c1ccc(F)cc1)c1cn(CF)nn1 [Compound 44]

1. 21
2. 32
3. 733
4. 1620
5. 370
6. 32
7. 432
8. 53

Go through the list and state IC50 for each entry.
1. N#Cc1cnc2c(Cl)cc(N[C@@H](c3ccc(F)cc3)c3c[nH]nn3)cc2c1NCc1cscn1 [Example 401]
2. CC(C)(C)N1CCC(n2cc([C@@H](Nc3cc(Cl)c4ncc(C#N)c(Nc5ccc(F)c(Cl)c5)c4c3)c3cccc(CO)c3)nn2)CC1 [Compound 17]

758
4

All figures here come from patent US10316017B2.
